assayComment: Inhibition of human cytoplasmic ribosome Cyt 14 hybridized with Mycobacterium smegmatis ribosome assessed as inhibition of translation activity using Firefly luciferase mRNA reporter based luminescence analysis
pIC50: −log10 of the molar value.
# pIC50 per entry

compound	boundType	pIC50
CCN[C@@H]1C[C@H](N)[C@@H](O[C@H]2OC(CN)=CC[C@H]2N)[C@H](O)[C@H]1O[C@H]1OC[C@](C)(O)[C@H](NC)[C@H]1O [NETILMICIN]	=	4.16
CCS[C@H]1[C@H](O)[C@@H](N)[C@@H](O[C@H]2[C@H](O[C@@H]3O[C@H](CO)[C@@H](O[C@H]4O[C@@H](CN)[C@@H](O)[C@H](O)[C@H]4N)[C@H]3O)[C@@H](O)[C@H](N)C[C@@H]2N)O[C@@H]1CO	=	3.98
CCN[C@@H]1C[C@H](N)[C@@H](O[C@H]2OC(CN)=C(Cl)C[C@H]2N)[C@H](O)[C@H]1O[C@H]1OC[C@](C)(O)[C@H](NC)[C@H]1O	<	3.30
CCC[C@H]1[C@H](O)[C@@H](N)[C@@H](O[C@H]2[C@H](O[C@@H]3O[C@H](CO)[C@@H](O[C@H]4O[C@@H](CN)[C@@H](O)[C@H](O)[C@H]4N)[C@H]3O)[C@@H](O)[C@H](N)C[C@@H]2N)O[C@@H]1CO	=	4.19
CCCCC1=C(CN)O[C@H](O[C@H]2[C@H](O)[C@@H](O[C@H]3OC[C@](C)(O)[C@H](NC)[C@H]3O)[C@H](NCC)C[C@@H]2N)[C@H](N)C1	=	3.03
CCN[C@@H]1C[C@H](N)[C@@H](O[C@H]2OC(CN)=C(I)C[C@H]2N)[C@H](O)[C@H]1O[C@H]1OC[C@](C)(O)[C@H](NC)[C@H]1O	=	3.66
CCN[C@@H]1C[C@H](N)[C@@H](O[C@H]2OC(CN)=C(SCC)C[C@H]2N)[C@H](O)[C@H]1O[C@H]1OC[C@](C)(O)[C@H](NC)[C@H]1O	=	3.11
CCN[C@@H]1C[C@H](N)[C@@H](O[C@H]2OC(CN)=C(c3ccccc3)C[C@H]2N)[C@H](O)[C@H]1O[C@H]1OC[C@](C)(O)[C@H](NC)[C@H]1O	=	4.09
NC[C@@H]1O[C@H](O[C@H]2[C@@H](O)[C@H](O[C@@H]3[C@@H](O)[C@H](N)C[C@H](N)[C@H]3O[C@H]3O[C@H](CO)[C@@H](O)[C@H](O)[C@H]3N)O[C@@H]2CO)[C@H](N)[C@@H](O)[C@@H]1O [PAROMOMYCIN]	=	4.51
CCN[C@@H]1C[C@H](N)[C@@H](O[C@H]2OC(CN)=C(Br)C[C@H]2N)[C@H](O)[C@H]1O[C@H]1OC[C@](C)(O)[C@H](NC)[C@H]1O	=	3.84

----------
Tested on: human cytoplasmic ribosome (Cyt 14 hybrid)
assayComment: Selectivity ratio of IC50 for inhibition of human cytoplasmic ribosome Cyt 14 hybridized with Mycobacterium smegmatis ribosomes to IC50 for inhibition of Mycobacterium smegmatis wild type ribosomes
Format: toxicity
statedConditions: read-out: Ratio IC50
observationType: selectivity ratio

                                  structure                        experimentalsystem    observationtype  readoutnumber
0  CCN[C@@H]1C[C@H](N)[C@@H](O[C@H]2OC(CN)=CC[C@H]2N)[C@H](O)[C@H]1O[C@H]1OC[C@](C)(O)[C@H](NC)[C@H]1O  human cytoplasmic ribosome (Cyt 14 hybrid)  selectivity ratio           3450
1  CCN[C@@H]1C[C@H](N)[C@@H](O[C@H]2OC(CN)=C(I)C[C@H]2N)[C@H](O)[C@H]1O[C@H]1OC[C@](C)(O)[C@H](NC)[C@H]1O  human cytoplasmic ribosome (Cyt 14 hybrid)  selectivity ratio           2210
2  CCN[C@@H]1C[C@H](N)[C@@H](O[C@H]2OC(CN)=C(Br)C[C@H]2N)[C@H](O)[C@H]1O[C@H]1OC[C@](C)(O)[C@H](NC)[C@H]1O  human cytoplasmic ribosome (Cyt 14 hybrid)  selectivity ratio           1460
